- TESTED SYSTEM: NanoLuc (Oplophorus gracilirostris, UniProt Q9GV45, A31E/A60N/A81I/F95D/I117V/K70R/L54V/L99Q/M102K/N193R/P142E/Q151K/Q38R/Q45L/V71I/Y165I)
- Sequence (Q9GV45 28-196 with tags or gaps with the stated changes limits assumed): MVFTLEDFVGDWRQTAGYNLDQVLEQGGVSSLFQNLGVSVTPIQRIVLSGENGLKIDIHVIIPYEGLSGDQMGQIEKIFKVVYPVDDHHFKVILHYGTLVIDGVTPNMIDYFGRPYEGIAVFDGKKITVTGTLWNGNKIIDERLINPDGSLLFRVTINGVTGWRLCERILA
- ASSAY INFO: Inhibitor IC50 determination
- Assay type: biochemical
- Experimental: The following example provides the IC50 values for the compounds disclosed herein. NANOLUC® enzyme was diluted to 0.4 ng/ml in CO2 independent media+10% FBS to make the detection reagent. A 3× dilution series of each inhibitor was then made in the detection reagent. A “no inhibitor” control was also made for each sample. […] The IC50 values were then determined using GraphPad Prism (log[inhibitor] vs. normalized response).
Mark Satisfied only when IC50 stays strictly below 30 nM. Values equal to the cut-off are Not satisfied.

[
  {
    "RECORD SMILES": "CCN(C(=O)Cn1c(C(=O)N[C@H]2CC[C@H](C(=O)NCCCCCCNC(=O)OCCOCCOCCOC(=O)NCCOCCOCCCCCCCl)CC2)cc2sccc21)c1cccc(C)c1",
    "QUALITATIVE LABEL": "Satisfied"
  },
  {
    "RECORD SMILES": "CCc1cccc(N(CC)C(=O)Cn2c(C(=O)N[C@H]3CC[C@H](C(=O)NCCCCCCNC(=O)CCOCCOCCNC(=O)c4ccc5c(c4)C4(OC5=O)c5ccc(N(C)C)cc5Oc5cc(N(C)C)ccc54)CC3)cc3ccccc32)c1",
    "QUALITATIVE LABEL": "Satisfied"
  },
  {
    "RECORD SMILES": "CCN(C(=O)Cn1c(C(=O)N[C@H]2CC[C@H](C(=O)NCCCCCCCC(=O)Oc3ccc(C#N)cc3)CC2)cc2sccc21)c1cccc(C)c1",
    "QUALITATIVE LABEL": "Satisfied"
  },
  {
    "RECORD SMILES": "CCc1cccc(N(CC)C(=O)Cn2c(C(=O)N[C@H]3CC[C@H](C(=O)NCCCCCC(=O)OC)CC3)cc3ccccc32)c1",
    "QUALITATIVE LABEL": "Satisfied"
  },
  {
    "RECORD SMILES": "CCc1cccc(N(CC)C(=O)Cn2c(C(=O)N[C@H]3CC[C@H](C(=O)NCCCCCC(=O)Oc4ccccc4)CC3)cc3ccccc32)c1",
    "QUALITATIVE LABEL": "Satisfied"
  },
  {
    "RECORD SMILES": "CCN(C(=O)Cn1c(C(=O)N[C@H]2CC[C@H](C(=O)NCCCCCCNC(=O)CCc3ccc4n3[B-](F)(F)[N+]3=C(C)C=C(C)C3=C4)CC2)cc2sccc21)c1cccc(C)c1",
    "QUALITATIVE LABEL": "Not satisfied"
  },
  {
    "RECORD SMILES": "CCN(C(=O)Cn1c(C(=O)N[C@H]2CC[C@H](C(=O)NCCCCCC(=O)NCCOCCOCCOCCC(=O)ON3C(=O)CCC3=O)CC2)cc2sccc21)c1cccc(C)c1",
    "QUALITATIVE LABEL": "Not satisfied"
  },
  {
    "RECORD SMILES": "CCN(C(=O)Cn1c(C(=O)N[C@H]2CC[C@H](C(=O)NCCCCCNC(=O)CBr)CC2)cc2sccc21)c1cccc(C)c1",
    "QUALITATIVE LABEL": "Not satisfied"
  },
  {
    "RECORD SMILES": "CCc1cccc(N(CC)C(=O)Cn2c(C(=O)N[C@H]3CC[C@H](C(=O)NCCCCCCCCNC(=O)CCOCCOCCNC(=O)c4ccc5c(c4)C4(OC5=O)c5ccc(N(C)C)cc5Oc5cc(N(C)C)ccc54)CC3)cc3ccccc32)c1",
    "QUALITATIVE LABEL": "Satisfied"
  },
  {
    "RECORD SMILES": "CCN(C(=O)Cn1c(C(=O)N[C@H]2CC[C@H](C(=O)NCCCCCCCC(=O)Oc3ccc(F)cc3)CC2)cc2sccc21)c1cccc(C)c1",
    "QUALITATIVE LABEL": "Not satisfied"
  },
  {
    "RECORD SMILES": "CCN(C(=O)Cn1c(C(=O)N[C@H]2CC[C@H](C(=O)NCCCCCCNC(=O)c3ccc4c(c3)C(=O)OC43c4ccc(O)cc4Oc4cc(O)ccc43)CC2)cc2sccc21)c1cccc(C)c1",
    "QUALITATIVE LABEL": "Not satisfied"
  },
  {
    "RECORD SMILES": "CCc1cccc(N(CC)C(=O)Cn2c(C(=O)N[C@H]3CC[C@H](C(=O)NCCCCCCNC(=O)c4ccc5c(c4)C(=O)OC54c5ccc(O)cc5Oc5cc(O)ccc54)CC3)cc3ccccc32)c1",
    "QUALITATIVE LABEL": "Satisfied"
  },
  {
    "RECORD SMILES": "CCc1cccc(N(CC)C(=O)Cn2c(C(=O)N[C@H]3CC[C@H](C(=O)NCCCCCCCCNC(=O)c4ccc5c(c4)C(=O)OC54c5ccc(O)cc5Oc5cc(O)ccc54)CC3)cc3ccccc32)c1",
    "QUALITATIVE LABEL": "Satisfied"
  },
  {
    "RECORD SMILES": "CCN(C(=O)Cn1c(C(=O)N[C@H]2CC[C@H](C(=O)NCCCCCCNC(=O)CCl)CC2)cc2sccc21)c1cccc(C)c1",
    "QUALITATIVE LABEL": "Satisfied"
  },
  {
    "RECORD SMILES": "CCN(C(=O)Cn1c(C(=O)N[C@H]2CC[C@H](C(=O)OC)CC2)cc2sccc21)c1cccc(CBr)c1",
    "QUALITATIVE LABEL": "Satisfied"
  },
  {
    "RECORD SMILES": "CCc1cccc(N(CC)C(=O)Cn2c(C(=O)N[C@H]3CC[C@H](C(=O)NCCCCCCI)CC3)cc3ccccc32)c1",
    "QUALITATIVE LABEL": "Satisfied"
  },
  {
    "RECORD SMILES": "CCc1cccc(N(CC)C(=O)Cn2c(C(=O)N[C@H]3CC[C@H](C(=O)NCCCCCCCCNC(=O)CCC(=O)NCCC4=C5C=CC=[N+]5[B-](F)(F)n5c(C)cc(C)c54)CC3)cc3ccccc32)c1",
    "QUALITATIVE LABEL": "Satisfied"
  },
  {
    "RECORD SMILES": "CCc1cccc(N(CC)C(=O)Cn2c(C(=O)N[C@H]3CC[C@H](C(=O)NCCCCCCCCNC(=O)CCc4ccc5n4[B-](F)(F)[N+]4=C(C)C=C(C)C4=C5)CC3)cc3ccccc32)c1",
    "QUALITATIVE LABEL": "Satisfied"
  },
  {
    "RECORD SMILES": "CCN(C(=O)Cn1c(C(=O)N[C@H]2CC[C@H](C(=O)NCCCCCCNC(=O)c3ccc4c(c3)C3(OC4=O)c4ccc(N(C)C)cc4Oc4cc(N(C)C)ccc43)CC2)cc2sccc21)c1cccc(C)c1",
    "QUALITATIVE LABEL": "Not satisfied"
  },
  {
    "RECORD SMILES": "CCc1cccc(N(CC)C(=O)Cn2c(C(=O)N[C@H]3CC[C@H](C(=O)NCCCCCCNC(=O)CCc4ccc5n4[B-](F)(F)[N+]4=C(C)C=C(C)C4=C5)CC3)cc3ccccc32)c1",
    "QUALITATIVE LABEL": "Satisfied"
  },
  {
    "RECORD SMILES": "CCN(C(=O)Cn1c(C(=O)N[C@H]2CC[C@H](C(=O)NCCCCCCCC(=O)Oc3c(F)c(F)cc(F)c3F)CC2)cc2sccc21)c1cccc(C)c1",
    "QUALITATIVE LABEL": "Satisfied"
  }
]
